- TGT: HIV-1 envelope 42368 (HIV-1)
- PROTOCOL_TEXT: cell-based or functional assay
IC50, PSV assay for assorted binders

1. bNAb19 (antibody, V domains shown) VH: EVQLVESGGGLVKAGGSLILSCGVSNFRISAHTMNWVRRVPGGGLEWVASISTSSTYRDYADAVKGRFTVSRDDLEDFVYLQMHKMRVEDTAIYYCARKGSDRLSDNDPFDAWGPGTVVTVSP VL: DVVMTQSPSTLSASVGDTITITCRASQSIETWLAWYQQKPGKAPKLLIYKASTLKTGVPSRFSGSGSGTEFTLTISGLQFDDFATYHCQHYAGYSATFGQGTRVEIKR | > 300 nM
2. bNAb14 (antibody, V domains shown) VH: QLQLQESGPGLVKPSETLSLTCTVSGGSMRGTDWGENDFHYGWIRQSSAKGLEWIGSIHWRGRTTHYKTSFRSRATLSIDTSNNRFSLTFSFVTAADTAVYYCARHKYHDIFRVVPVAGWFDPWGQGLLVTVSS VL: EIVMTQSPPTLSVSPGETATLSCRASQNVKNNLAWYQLKPGQAPRLLIFDASSRAGGIPDRFSGSGYGTDFTLTVNSVQSEDFGDYFCQQYEEWPRTFGQGTKVDIKR | > 500 nM

Note down IC50, PSV assay recorded for bNAb15 (antibody, V domains shown) VH: EVHLEESGPGLVRPSETLSLTCTASGGSIRGGEWGDSDYHWGWVRHSPEKGLEWIGSIHWRGTTHYNAPFRGRGRLSIDLSRNQFSLRLTSVTAEDTAVYYCVKHKYHDIVMVVPIAGWFDPWGQGLQVTVSS VL: EIMMTQSPAILSVSPGDRATLSCRASQSVKNNLAWYQKRPGQAPRLLIFDTSSRASGIPARFSGGGSGTEFTLTVNSMQSEDFATYYCQQYEEWPRTFGQGTKVEIKR
> 500 nM

Note down IC50, PSV assay recorded for bNAb16 (antibody, V domains shown) VH: EVQLVESGGGLVKPGGSLRLTCVASGFTFSDVWLNWVRQAPGKGLEWVGRIKSRTDGGTTDYAASVKGRFTISRDDSKNTLYLQMNSLKTEDTAVYSCTTDGFIMIRGVSEDYYYYYMDVWGKGTTVTVSS VL: QSVLTQPPSVSAAPGQKVTISCSGSSSNIGNNYVLWYQQFPGTAPKLLIYGNNKRPSGIPDRFSGSKSGTSATLGITGLQTGDEADYFCATWDSGLSADWVFGGGTKLTVLG
> 500 nM

Note down IC50, PSV assay recorded for bNAb18 (antibody, V domains shown) VH: QVQLVQSGAEVRKPGSSVTISCKPVGGTFTNFAIHWVRQAPGQGLEWVGGRVPVVGIYKYGKKFHDRLRLYEDDPMKTVFLELRSLTSDDTGVYYCTRWRGCGMCPYDTSSYYNDASDVWGPGTKVIVSA VL: EIVLTQSPVTLSLSSGETGTLSCRASQNISSSWIAWYQQRRGQVPRLLISAASARAAGIPDRFTGRGSGTDFTLTITRLEPEDFGVYSCQYYGGSFFTFGPGTQVDVKR
> 500 nM

Note down IC50, PSV assay recorded for bNAb23 (antibody, V domains shown) VH: QVQLLESGPGLVRPSETLTLTCSVFNSRVSGYYYSWIRQPPGRGLEWIASTHFSLRPSRNPSLLSRVTTSIDTERYQVFLNMRSVTAADTAVYFCARGDASGWRADYFPHWGQGTLVVVSS VL: QSVLTQPPSASGSPGQSVTISCTGTSSDIGASDYVSWYQQYPGEAPKVIIYDVTKRPSGVPDRFSGSKSGTTASLTVSGLQAEDEADYYCSSDAGRHTLLFGGGTKVTVLG
> 500 nM
